Test system: intestinal flora
assay-text: Effects of administration routes on the diversity of intestinal flora in mice (16S rDNA sequencing, OTU)
Format: in vivo
condition-parameters: C57BL/6 mice, feces; in combination with recombinant human HAase for subcutaneous administration, five consecutive days; D10
Description: 12 SPF grade C57BL/6 mice were used for each antibiotic mode, and divided into two groups, each having 6 mice. The two groups include an oral administration group, and a subcutaneous administration group combined with recombinant human HAase. A blank control group including 6 mice was also set. […] After DNA extraction, PCR amplification and gene sequencing, the changes of intestinal bacterial diversity in each group of mice were analyzed. […]
recorded-metric: Relative abundance of OUT (operational taxonomic units) (%)

>  <structure-string>
CC1=C(C(=O)O)N2C(=O)[C@@H](NC(=O)[C@H](N)C3=CCC=CC3)[C@H]2SC1

>  <endpoint-result>
42.9

$$$$
>  <structure-string>
CC(C)(O/N=C(\C(=O)N[C@@H]1C(=O)N2C(C(=O)[O-])=C(C[n+]3ccccc3)CS[C@H]12)c1csc(N)n1)C(=O)O

>  <endpoint-result>
42.3

$$$$
>  <structure-string>
CO/N=C(\C(=O)N[C@@H]1C(=O)N2C(C(=O)O)=C(CSc3nc(=O)c(=O)[nH]n3C)CS[C@H]12)c1csc(N)n1

>  <endpoint-result>
39.3

$$$$
>  <structure-string>
C[C@@H](O)[C@H]1C(=O)N2C(C(=O)O)=C(S[C@@H]3CN[C@H](C(=O)Nc4cccc(C(=O)O)c4)C3)[C@H](C)[C@H]12

>  <endpoint-result>
36.7

$$$$

###

Test system: intestinal flora
assay-text: Effects of administration routes on the diversity of intestinal flora in mice (16S rDNA sequencing, OTU)
Type: in vivo
condition-parameters: C57BL/6 mice, feces; oral administration for five consecutive days; D4
Description: 12 SPF grade C57BL/6 mice were used for each antibiotic mode, and divided into two groups, each having 6 mice. The two groups include an oral administration group, and a subcutaneous administration group combined with recombinant human HAase. A blank control group including 6 mice was also set. […] After DNA extraction, PCR amplification and gene sequencing, the changes of intestinal bacterial diversity in each group of mice were analyzed. […]
recorded-metric: Relative abundance of OUT (operational taxonomic units) (%)

>  <structure-string>
CC(C)(O/N=C(\C(=O)N[C@@H]1C(=O)N2C(C(=O)[O-])=C(C[n+]3ccccc3)CS[C@H]12)c1csc(N)n1)C(=O)O

>  <tested-on>
intestinal flora

>  <endpoint-result>
21.1

$$$$
>  <structure-string>
CC1=C(C(=O)O)N2C(=O)[C@@H](NC(=O)[C@H](N)C3=CCC=CC3)[C@H]2SC1

>  <tested-on>
intestinal flora

>  <endpoint-result>
22.6

$$$$
>  <structure-string>
CO/N=C(\C(=O)N[C@@H]1C(=O)N2C(C(=O)O)=C(CSc3nc(=O)c(=O)[nH]n3C)CS[C@H]12)c1csc(N)n1

>  <tested-on>
intestinal flora

>  <endpoint-result>
14.1

$$$$
>  <structure-string>
C[C@@H](O)[C@H]1C(=O)N2C(C(=O)O)=C(S[C@@H]3CN[C@H](C(=O)Nc4cccc(C(=O)O)c4)C3)[C@H](C)[C@H]12

>  <tested-on>
intestinal flora

>  <endpoint-result>
14.6

$$$$

###

assay-text: Pharmacokinetics of model antibiotics in mice: tail vein injection vs subcutaneous administration combined with recombinant human HAase
condition-parameters: male, ICR, mouse, blood, sc, AUClast, ICR male mice; in combination with recombinant human HAase for subcutaneous administration; single dose 100-200 mg/kg

>  <structure-string>
C[C@@H](O)[C@H]1C(=O)N2C(C(=O)O)=C(S[C@@H]3CN[C@H](C(=O)Nc4cccc(C(=O)O)c4)C3)[C@H](C)[C@H]12

>  <AUC(0-t)>
459 µg·h/mL

$$$$
